AC50, Estrogen receptor (Homo sapiens): measured values

# query: AC50 of entry CC(=O)O[C@H](CC(=O)[O-])C[N+](C)(C)C
> 30 µM

Check CCC1(c2ccccc2)CCC(=O)NC1=O (centres undefined) [GLUTETHIMIDE] too.
> 10 µM

Check CN1CCC(=C2c3ccccc3CCc3cccnc32)CC1 too.
> 30 µM

Check CC1OC2(CS1)CN1CCC2CC1 (centres undefined) too.
> 10 µM

Check Cc1cnc(C(=O)NCCc2ccc(S(=O)(=O)NC(=O)NC3CCCCC3)cc2)cn1 [GLIPIZIDE] too.
> 30 µM

Check CC(C)c1nc(N(C)S(C)(=O)=O)nc(-c2ccc(F)cc2)c1/C=C/[C@@H](O)C[C@@H](O)CC(=O)O too.
> 30 µM

Check NC1CCN(c2nc3c(cc2F)c(=O)c(C(=O)O)cn3-c2ccc(F)cc2F)C1 (centres undefined) too.
> 30 µM

Check CC(CCc1ccc(O)cc1)NCCc1ccc(O)c(O)c1 (centres undefined) too.
> 30 µM

Check CCN(CC)CCNC(=O)c1cc(S(C)(=O)=O)ccc1OC [TIAPRIDE] too.
> 30 µM

Check COc1ccc(CC2c3cc(OC)c(OC)cc3CC[N+]2(C)CCC(=O)OCCCCCOC(=O)CC[N+]2(C)CCc3cc(OC)c(OC)cc3C2Cc2ccc(OC)c(OC)c2)cc1OC (centres undefined) too.
> 30 µM

Check CC(C)(C)C(=O)OCC(=O)[C@H]1CC[C@H]2[C@@H]3CCC4=CC(=O)CC[C@]4(C)[C@H]3CC[C@]12C [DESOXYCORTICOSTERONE PIVALATE] too.
> 30 µM

Check CC1=C(C)C(=O)C(C(CCCCCC(=O)O)c2ccccc2)=C(C)C1=O (centres undefined) too.
> 30 µM

Check CC(=O)N[C@@H](CS)C(=O)O too.
> 30 µM

Check COCC1=C(C(=O)O)N2C(=O)[C@@H](NC(=O)/C(=N\OC)c3csc(N)n3)[C@H]2SC1 too.
> 30 µM

Check COc1cc(N)c(Cl)cc1C(=O)NC1CCN(Cc2ccccc2)CC1 [CLEBOPRIDE] too.
> 30 µM

Check Clc1ccc2c(N3CCN(CCCN4CCN(c5ccnc6cc(Cl)ccc56)CC4)CC3)ccnc2c1 too.
> 30 µM

Check CCOC(=O)c1cncn1[C@H](C)c1ccccc1 [ETOMIDATE] too.
> 10 µM

Check CN1CCN(C2=Nc3ccccc3Oc3ccc(Cl)cc32)CC1 too.
> 30 µM

Check CC(C(=O)O)c1ccc2c(c1)[nH]c1ccc(Cl)cc12 (centres undefined) too.
> 30 µM

====

AC50, Glutamate receptor ionotropic, NMDA 1 (Rattus norvegicus, UniProt P35439): measured values

# query: AC50 of entry CC(=O)N[C@@H](CS)C(=O)O [ACETYLCYSTEINE]
> 30 µM

Check [H]/N=C(/N)N/C(=N/[H])NCCc1ccccc1 [PHENFORMIN] too.
2.32 µM

Check N[C@@H](CC(=O)N1CCn2c(nnc2C(F)(F)F)C1)Cc1cc(F)c(F)cc1F [SITAGLIPTIN] too.
> 10 µM

Check O=C1C(CC[S+]([O-])c2ccccc2)C(=O)N(c2ccccc2)N1c1ccccc1 (configuration not stated) [SULFINPYRAZONE] too.
> 10 µM

Check COc1ccc(-c2noc(CC(=O)O)c2-c2ccc(OC)cc2)cc1 [MOFEZOLAC] too.
> 30 µM

Check CO[C@H]1/C=C/O[C@@]2(C)Oc3c(C)c(O)c4c(O)c(c(/C=N/N5CCN(C)CC5)c(O)c4c3C2=O)NC(=O)/C(C)=C\C=C\[C@H](C)[C@H](O)[C@@H](C)[C@@H](O)[C@@H](C)[C@H](OC(C)=O)[C@@H]1C [RIFAMPIN] too.
> 30 µM

Check CCOC(=O)c1cncn1[C@H](C)c1ccccc1 [ETOMIDATE] too.
> 10 µM

Check O=C(O)CCNC(=O)c1ccccc1 [BETAMIPRON] too.
> 30 µM

Check O=C1CCc2cc(OCCCCc3nnnn3C3CCCCC3)ccc2N1 [CILOSTAZOL] too.
> 30 µM

Check C#C[C@]1(OC(C)=O)CC[C@H]2[C@@H]3CCC4=C/C(=N/O)CC[C@@H]4[C@H]3CC[C@@]21CC [NORGESTIMATE] too.
> 30 µM

Check CC(C)COCC(CN(Cc1ccccc1)c1ccccc1)N1CCCC1 (configuration not stated) [BEPRIDIL] too.
> 30 µM

Check C[C@]12CC[C@@H]3c4ccc(O)cc4C[C@@H](CCCCCCCCC[S+]([O-])CCCC(F)(F)C(F)(F)F)[C@H]3[C@@H]1CC[C@@H]2O (some centres not stated) [FULVESTRANT] too.
> 30 µM

Check Oc1ccc2c(c1)CC[C@H](c1ccccc1)[C@@H]2c1ccc(OCCN2CCCC2)cc1 [LASOFOXIFENE] too.
> 30 µM

Check CC(=O)O[C@]1(C(C)=O)CC[C@H]2[C@@H]3C=C(C)C4=CC(=O)CC[C@@H]4[C@H]3CC[C@@]21C [NOMEGESTROL ACETATE] too.
> 10 µM

Check CN(C)CCC[C@@]1(c2ccc(F)cc2)OCc2cc(C#N)ccc21 [ESCITALOPRAM] too.
> 30 µM

Check O=C1CN=C(c2ccccc2)c2cc([N+](=O)[O-])ccc2N1 [NITRAZEPAM] too.
> 10 µM

Check CC(C)Cc1ccc(C(C)C(=O)O)cc1 (configuration not stated) [IBUPROFEN] too.
> 10 µM
